Provide the recorded melting point for the entries that follow.

**Query** Input CCCOc1cc(F)c(COC(=O)N2CCNCC2CC)c(F)c1.O=C(O)/C=C/C(=O)O (racemic) , output reported melting point.
**Result** 145 to 165 °C (dec.)

**Query** Complete the entry with melting point for Cl.O=C(OCc1ccc(Br)cc1F)N1CCNCC1
**Result** 209.5 to 209.6 °C

**Query** Recall and state the measured melting point for CCCOc1cc(F)c(COC(=O)N2CCNC[C@H]2C)c(F)c1.O=C(O)/C=C/C(=O)O .
**Result** 193.9 to 194 °C

**Query** Please give measured melting point of the following entry: CCCCOc1ccc(F)c(COC(=O)N2CCNCC2)c1.O=C(O)/C=C/C(=O)O
**Result** 142.4 to 143.5 °C

**Query** Using the record for Cl.O=C(SCc1ccc(OCc2ccc(F)cc2)cc1)N1CCNCC1 , state its measured melting point.
**Result** 169 to 169.5 °C

----------
Biological target: 5-HT2A receptor (Homo sapiens, UniProt P28223)
Sequence (P28223 whole entry): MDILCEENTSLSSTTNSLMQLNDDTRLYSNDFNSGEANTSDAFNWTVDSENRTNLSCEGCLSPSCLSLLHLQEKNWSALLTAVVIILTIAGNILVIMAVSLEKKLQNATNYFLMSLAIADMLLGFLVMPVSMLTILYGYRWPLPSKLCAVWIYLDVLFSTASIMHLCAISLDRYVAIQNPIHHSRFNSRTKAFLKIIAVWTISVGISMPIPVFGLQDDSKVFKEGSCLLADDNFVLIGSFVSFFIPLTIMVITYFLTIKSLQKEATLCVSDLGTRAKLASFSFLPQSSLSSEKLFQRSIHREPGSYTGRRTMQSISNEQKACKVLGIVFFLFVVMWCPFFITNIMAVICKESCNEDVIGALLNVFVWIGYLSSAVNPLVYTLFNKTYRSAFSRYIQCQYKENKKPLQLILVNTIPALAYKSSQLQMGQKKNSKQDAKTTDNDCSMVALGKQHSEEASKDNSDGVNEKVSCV
Assay: Functional activity, FLIPR calcium assay, CHO cells expressing human 5-HT2A
Format: cell-based
Parameters: expressed in transfected cells; host or cells: CHO cells
Conditions: maximum fluorescent signal relative to 10 μM 5-HT (defined as 100%)
Counter-ions that a name gives are not always drawn.
Kindly state h5-HT2A Relative Efficacy for each of the entries shown.

**Query** Return reported h5-HT2A Relative Efficacy. Input compound: CC(C)NC(=O)Oc1ccc(CSC(=O)N2CCNCC2)cc1 [Example 63, hydrochloride]
**Result** 25%

**Query** In one line, give reported h5-HT2A Relative Efficacy of the entry Cl.O=C(OCc1ccc(OC(F)F)cc1)N1CCNCC1 .
**Result** 24%

**Query** In one line, give reported h5-HT2A Relative Efficacy of the entry Cl.O=C(SCc1ccc(OCc2ccccc2)cc1)N1CCNCC1 .
**Result** 22%

**Query** Please give the documented h5-HT2A Relative Efficacy of Cc1noc(C)c1COc1cc(F)c(COC(=O)N2[C@H](C)CNC[C@@H]2C)c(F)c1
**Result** 11%

----------
Target: UniProtKB P28223
Assay: Functional activity, FLIPR calcium assay, CHO cells expressing human 5-HT2A
Assay type: cell-based
Parameters: expressed in transfected cells; host or cells: CHO cells
Experimental: The functional activity of compounds of formula (I) was assayed using a Fluorimetric Imaging Pate reader (FLIPR). CHO cells expressing the human 5-HT2C or human 5-HT2A receptors were counted and plated into standard 96 well microtitre plates on the day before testing to give a confluent monolayer. […] The drug (dissolved in 50 µL of the assay buffer) was added at a rate of 70 μL/sec to each well of the FLIPR 96 well plate during fluorescence measurements. […]
Counter-ions that a name gives are not always drawn.
MEASURED ATTRIBUTE: EC50 (nM)
Please give a number only; it is taken to be in nM.

**Query** Fill in reported EC50 for this entry: CC(C)NC(=O)Oc1ccc(CSC(=O)N2CCNCC2)cc1 [Example 63, hydrochloride]
**Result** 370

----------
Target: 5-HT2C receptor (Homo sapiens)
Sequence (P28335 33-458): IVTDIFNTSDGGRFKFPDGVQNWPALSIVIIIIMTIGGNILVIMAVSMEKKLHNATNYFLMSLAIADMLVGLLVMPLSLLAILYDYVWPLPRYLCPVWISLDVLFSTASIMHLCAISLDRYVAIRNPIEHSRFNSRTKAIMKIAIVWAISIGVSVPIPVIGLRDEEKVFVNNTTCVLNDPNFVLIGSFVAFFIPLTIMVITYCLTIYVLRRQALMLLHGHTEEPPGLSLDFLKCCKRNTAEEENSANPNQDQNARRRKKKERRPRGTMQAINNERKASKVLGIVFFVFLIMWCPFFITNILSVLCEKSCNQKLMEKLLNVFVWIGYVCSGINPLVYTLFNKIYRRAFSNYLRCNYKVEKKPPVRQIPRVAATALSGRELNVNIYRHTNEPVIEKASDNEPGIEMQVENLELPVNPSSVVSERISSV
Test: Functional activity, FLIPR calcium assay, CHO cells expressing human 5-HT2C
Assay type: cell-based
Design: expressed in transfected cells; host or cells: CHO cells
Conditions: maximum fluorescent signal relative to 10 μM 5-HT (defined as 100%)
Where a name gives a salt, the structure may show the parent alone.
MEASURED ATTRIBUTE: h5-HT2c Relative Efficacy (%)
State just the number; it will be interpreted in %.

**Query** Provide measured h5-HT2c Relative Efficacy value, entry: Cl.O=C(OCc1ccc(OC(F)F)cc1)N1CCNCC1 [Example 22]
**Result** 56

**Query** Give me measured h5-HT2c Relative Efficacy, please, for this molecule: CC(C)NC(=O)Oc1ccc(CSC(=O)N2CCNCC2)cc1 [Example 63, hydrochloride]
**Result** 74

**Query** Please give measured h5-HT2c Relative Efficacy of the following entry: Cc1noc(C)c1COc1cc(F)c(COC(=O)N2[C@H](C)CNC[C@@H]2C)c(F)c1 [Example 121]
**Result** 91

**Query** Report h5-HT2c Relative Efficacy for Cl.O=C(SCc1ccc(OCc2ccccc2)cc1)N1CCNCC1 [Example 32]
**Result** 65
